- Tested on: Saccharomyces cerevisiae
- test: protein stability index of tFT-peptide fusion (C-terminal peptide) (PSI (0-1 scale)); higher = more stable (slower turnover)
- condition_summary: genetic background: wild type; temperature: 30 C
Given measured protein stability index, output label 1 if it is greater than or equal to 0.7 and label 0 if not.

| sequence_text | tested_on | label_value |
| --- | --- | --- |
| HGRSGGGKGAER | Saccharomyces cerevisiae | label 0 |
| KLKTTEKTNPRE | Saccharomyces cerevisiae | label 1 |
| QHIKNARKKKGE | Saccharomyces cerevisiae | label 0 |
| HPPRPPPRSPPP | Saccharomyces cerevisiae | label 0 |
| SGVTISYQEGLR | Saccharomyces cerevisiae | label 0 |
| FPTSRAGSLIRR | Saccharomyces cerevisiae | label 0 |

====

- Test system: Saccharomyces cerevisiae
- test: protein stability index of tFT-peptide fusion (C-terminal peptide) (PSI (0-1 scale)); higher = more stable (slower turnover)
- condition_summary: genetic background: wild type; temperature: 37 C

| sequence_text | protein stability index |
| --- | --- |
| SCLLVVVSTSGN | 0.588 |
| RWRLWVGWWVVG | 0.142 |
| SGFWVSVDVFFV | 0.29 |
| CFLLSYRWVFLC | 0.0605 |
| RRGLIFFLCCPA | 0.432 |
| VGPLAPVCLLVL | 0.477 |
| LLPLLFFFLCLP | 0.529 |
| LRMSLLVFLLFA | 0.399 |
| VFVGGVSVLILF | 0.584 |
| FVFCTCSFFFLW | 0.51 |
| EGGLGDRLLGVG | 0.547 |
| VVTFCCARVTKI | 0.651 |

====

- Tested on: Saccharomyces cerevisiae
- test: protein stability index of tFT-peptide fusion (C-terminal peptide) (PSI (0-1 scale)); higher = more stable (slower turnover)
- condition_summary: genetic background: das1 deletion; temperature: 30 C
Listed sequences paired with reported protein stability index

| sequence_text | tested_on | protein stability index |
| --- | --- | --- |
| EHRMLKLILNSG [NTO1 C-terminal 12 aa] | Saccharomyces cerevisiae | 0.694 |
| LDQFEINSDGEE [NCS2 C-terminal 12 aa] | Saccharomyces cerevisiae | 0.691 |
| KFKIQNILNSTF [SIP4 C-terminal 12 aa] | Saccharomyces cerevisiae | 0.714 |
| SRGHDLASEYPL [ERS1 C-terminal 12 aa] | Saccharomyces cerevisiae | 0.706 |
| EEESTTSENLHF [RSM25 C-terminal 12 aa] | Saccharomyces cerevisiae | 0.699 |
| FKGFLENIDSYT [AIM22 C-terminal 12 aa] | Saccharomyces cerevisiae | 0.714 |
| REENAHLETYKV [HRK1 C-terminal 12 aa] | Saccharomyces cerevisiae | 0.7 |

====

Quick reference: protein stability index of the listed items.
- System: Saccharomyces cerevisiae
- test: protein stability index of tFT-peptide fusion (C-terminal peptide) (PSI (0-1 scale)); higher = more stable (slower turnover)
- condition_summary: genetic background: das1 deletion; temperature: 30 C

| sequence_text | tested_on | protein stability index |
| --- | --- | --- |
| GAWLAVCVVREG | Saccharomyces cerevisiae | 0.398 |
| LFHSFFLYCLMS | Saccharomyces cerevisiae | 0.616 |
| RKRKKISEIIAI | Saccharomyces cerevisiae | 0.589 |

====

- System: Saccharomyces cerevisiae
- test: protein stability index of tFT-peptide fusion (C-terminal peptide) (PSI (0-1 scale)); higher = more stable (slower turnover)
- condition_summary: genetic background: das1 deletion; temperature: 30 C
observation_type: protein stability index

| sequence_text | observation_type | recorded_value |
| --- | --- | --- |
| VLSVISAVFGLI [PLB1 C-terminal 12 aa] | protein stability index | 0.674 |
| EPFGPKMSTVQV [YHB1 C-terminal 12 aa] | protein stability index | 0.673 |
| VVYYHMVCKNIT [YHR125W C-terminal 12 aa] | protein stability index | 0.566 |
| TRSSGDDQVFVF [PGA3 C-terminal 12 aa] | protein stability index | 0.707 |
| QRIEGMLQLLTS [UTP15 C-terminal 12 aa] | protein stability index | 0.715 |
| EEQRNHLKDLYG [SLU7 C-terminal 12 aa] | protein stability index | 0.697 |
| VLNFFKRRSMRV [KIN4 C-terminal 12 aa] | protein stability index | 0.625 |
| HCQPQEILVLRQ [PEX10 C-terminal 12 aa] | protein stability index | 0.709 |
| PKIGILHNYLYL [YFT2 C-terminal 12 aa] | protein stability index | 0.698 |
| EELLNQPPEEQI [GPX1 C-terminal 12 aa] | protein stability index | 0.712 |
| VIIKVFIRRSDA [YJL086C C-terminal 12 aa] | protein stability index | 0.515 |
| SHMILYQQQECY [YER181C C-terminal 12 aa] | protein stability index | 0.451 |
| NGPVNNNAHLVA [FAT3 C-terminal 12 aa] | protein stability index | 0.689 |
| PTCETTIDIDRI [ZRG17 C-terminal 12 aa] | protein stability index | 0.687 |
| TYMLNGPAGLLM [YNL165W C-terminal 12 aa] | protein stability index | 0.698 |
| KKDFNEDDSLFG [VPS55 C-terminal 12 aa] | protein stability index | 0.722 |
| ILFSFFCNLVAK [VTC4 C-terminal 12 aa] | protein stability index | 0.524 |
| IPNIFGKFTVTS [YKL091C C-terminal 12 aa] | protein stability index | 0.697 |
| RQMTSSFFLVFA [YDR118W-A C-terminal 12 aa] | protein stability index | 0.512 |
| QGALDSLLNGDV [DSK2 C-terminal 12 aa] | protein stability index | 0.685 |

====

- Test system: Saccharomyces cerevisiae
- test: protein stability index of tFT-peptide fusion (C-terminal peptide) (PSI (0-1 scale)); higher = more stable (slower turnover)
- condition_summary: genetic background: wild type; temperature: 30 C
observation_type: protein stability index

| sequence_text | recorded_value |
| --- | --- |
| PPSPPVPRFSLL | 0.695 |
| AVGWGGLKGRVG | 0.7 |
| LSFLCFSTVLHC | 0.503 |
| YGGRQRCRGRVE | 0.825 |
| VVSEQLDRGMRF | 0.694 |
| GVRHPRLMFSRS | 0.687 |
| LPIFWVWFSVFR | 0.349 |
| GSYIPSPKKNKC | 0.709 |
| FSLGGVPYVFFV | 0.37 |
| AGPDGDWREPRP | 0.57 |
| MTSSYLCWDVIG | 0.632 |
| GANKQHLARKTE | 0.725 |
| VTNGGGMGWYRR | 0.652 |
| FFLSSLFPSFSS | 0.796 |
| LKMGAWAHTETW | 0.645 |
| GCPRGGVGSRGV | 0.659 |
| PLRISQLDVVRS | 0.655 |
| RCGVAGVVCGSG | 0.615 |
| SVVYVIYCGGIL | 0.427 |
| SRPLFLSLFSSV | 0.599 |
| YNRKQEAAQKAN | 0.486 |
| QFWVICTRGSEN | 0.694 |
| GGTGRRRVGRRG | 0.696 |
| GVAYSIVKKKKK | 0.684 |
| GVRKGEESGVGW | 0.717 |
| PLAPPSPPPAPP | 0.662 |
| WLWYSPIAFTAL | 0.179 |
| CQSARCLPFLLY | 0.585 |
| WWAGGCGGERGG | 0.686 |
| LPGGECSLKGQQ | 0.701 |
| CGVMLFGLGCLW | 0.632 |
| SIECSLCYSLFD | 0.663 |
| GCMGGYAFFSGG | 0.571 |
| RAMLWGPCYRGI | 0.656 |
| MDGRVMAETCRA | 0.585 |
| ICVYGGRKISPG | 0.688 |
| DGLQNACVFMSG | 0.691 |
| SFASLSFDTASF | 0.675 |
| ILLYCVLIDPYS | 0.344 |
| PTTLTTPTPPHR | 0.716 |
| PGGRPAAGALRV | 0.685 |
| FISEYPQCAALG | 0.738 |
| LIGRPLPRTFMH | 0.766 |
| PFCKTDHMSMTV | 0.682 |
| KKKNQGKKKIKK | 0.699 |
| ELSCMDGPLLCP | 0.683 |
| GKSGVTGAGEKR | 0.681 |
| GDGNERPLGRRD | 0.643 |
| EQLRLQSIECGE | 0.631 |
| KQRGSNYGCGYG | 0.615 |
| LGGTGGFRGVRG | 0.691 |
| SIERNEGRKKLG | 0.708 |
| TCRGRLCVCLFC | 0.505 |
| VLRCVLTYGKPS | 0.673 |
| ATSSNFGVWVHV | 0.69 |
| NIKKNQRKEASK | 0.698 |
| SLGRVSRLSFQH | 0.784 |
| RDGAHFLLILVC | 0.203 |
| GGVAAVGGPWGN | 0.75 |
| LCSSASFFFSVL | 0.67 |
| VGWFELWGVSSG | 0.76 |
| TARAGRTASAPR | 0.708 |
| PPLLRAPLLPPC | 0.708 |
| HFSLCSNRSNPP | 0.646 |
| VSRDVMYLGLGG | 0.721 |

Sourced from the supplement of paper PMC10724198
